Assay: Photoactivation of the compound assessed as photocleavage by measuring decay half-life in the presence of 365 nm UV irradiation by HPLC based LC-MS analysis
Below, each of the compounds is paired with its reported half-life value.
MEASUREMENT_NAME: half-life

compound=O=[N+]([O-])c1cc2c(cc1CO/C(=N\OC[C@H](O)CO)c1ccc(F)c(F)c1Nc1ccc(I)cc1F)OCO2 experimental_value="1.68 min"
compound=COc1cc(CN(c2ccc(I)cc2F)c2c(C(=O)NOC[C@H](O)CO)ccc(F)c2F)c([N+](=O)[O-])cc1OC experimental_value="0.19 min"
compound="COc1cc(C(C)O/C(=N\\OC[C@H](O)CO)c2ccc(F)c(F)c2Nc2ccc(I)cc2F)c([N+](=O)[O-])cc1OC (some centres undefined)" experimental_value="1.41 min"
compound="CC(O/C(=N\\OC[C@H](O)CO)c1ccc(F)c(F)c1Nc1ccc(I)cc1F)c1cc2c(cc1[N+](=O)[O-])OCO2 (some centres undefined)" experimental_value="1.26 min"

Data provenance: ChEMBL document CHEMBL5346924
